Parameter IC50: see the listing below.
# target.or.test.system: Avi-KRAS G12D/Q25A (1-169) GppNHp/3×FLAG-PI3KCA (157-299) (Homo sapiens, UniProt P01116, G12D/Q25A)
# Construct: Avi-KRAS G12D/Q25A (1-169) GppNHp
# Sequence (P01116 1-169 isoform P01116-2 G12D/Q25A limits assumed): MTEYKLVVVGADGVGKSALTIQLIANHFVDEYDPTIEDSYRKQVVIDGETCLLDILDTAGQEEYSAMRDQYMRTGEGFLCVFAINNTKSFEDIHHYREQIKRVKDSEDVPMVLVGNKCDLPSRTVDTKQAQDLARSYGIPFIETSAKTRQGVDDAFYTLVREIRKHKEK
# assay.name: HTRF PI3KCA-KRAS G12D/Q25A-GppNHp disruption assay
# experimental.context: 1 h incubation

Tell me the measured IC50 of CN1CCC[C@H]1COc1nc(N2CCNCC2)c2cc(-c3cccnc3)c(-c3ccc(F)c4sc(N)nc34)c(F)c2n1 [Compound 155] , please.
1 to 10 µM

---
Returns the measured IC50 for the input compound. Input: CO[C@@H]1C[C@@H](COc2nc(N3CCNCC3)c3cc(Cl)c(-c4ccc(F)c5sc(N)nc45)c(F)c3n2)N(C)C1 [Compound 69]
10 to 30 µM

Could you share which IC50 value was measured for CC1(Nc2nc(OCC34CCCN3CCC4)nc3c(F)c(-c4ccc(F)c5sc(N)nc45)c(Cl)cc23)CNC1 [Compound 190] ?
1 to 10 µM

Request the reported IC50 associated with CN1C2CCC1CN(c1nc(OC[C@@]34CCCN3C[C@H](F)C4)nc3c(F)c(-c4ccc(F)c5sc(N)nc45)c(C(F)(F)F)cc13)C2 [Compound 221]
1 to 10 µM

For CN1C[C@H](F)C[C@H]1COc1nc(NC2CNC2)c2cc(C(F)(F)F)c(-c3ccc(F)c4sc(N)nc34)c(F)c2n1 [Compound 119] , what is its reported IC50?
1 to 10 µM

Name the recorded IC50 for Nc1nc2c(-c3c(C(F)(F)F)cc4c(N5CC6CCC(C5)N6)nc(OC[C@@]56CCCN5C[C@H](F)C6)nc4c3F)ccc(F)c2s1 (single isomer, unassigned) [Compound 246] .
1 to 10 µM

Reference source: patent US20240246954A1
